- target: Histamine H2 receptor (Cavia porcellus, UniProt P47747)
- Sequence (P47747 whole entry): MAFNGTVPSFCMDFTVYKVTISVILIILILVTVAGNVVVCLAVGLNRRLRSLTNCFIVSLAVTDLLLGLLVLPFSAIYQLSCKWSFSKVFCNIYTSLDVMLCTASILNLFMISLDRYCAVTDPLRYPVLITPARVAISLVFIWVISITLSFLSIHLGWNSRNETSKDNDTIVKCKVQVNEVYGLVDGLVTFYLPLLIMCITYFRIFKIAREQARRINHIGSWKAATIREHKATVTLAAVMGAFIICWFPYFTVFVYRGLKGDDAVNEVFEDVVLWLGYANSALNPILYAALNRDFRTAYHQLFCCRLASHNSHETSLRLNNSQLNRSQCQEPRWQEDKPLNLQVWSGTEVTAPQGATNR
- assay summary: Functional H2 receptor antagonistic activity in vitro assay on the isolated spontaneously beating guinea-pig right atrium
- Format: tissue-based, Cardiac atrium
- test parameters: read-out: pA2 (converted)

- molecule: "CCOCCCc1c[nH]cn1.O=C(O)C(=O)O"
  Kb: "> 31.6 µM"
- molecule: "CCCOCCCc1c[nH]cn1.O=C(O)C(=O)O"
  Kb: "> 31.6 µM"
- molecule: "C=CCOCCCc1c[nH]cn1.O=C(O)C(=O)O"
  Kb: "> 31.6 µM"

* * *

- target: Histamine H3 receptor (Rattus norvegicus, UniProt Q9QYN8)
- Sequence (Q9QYN8 whole entry): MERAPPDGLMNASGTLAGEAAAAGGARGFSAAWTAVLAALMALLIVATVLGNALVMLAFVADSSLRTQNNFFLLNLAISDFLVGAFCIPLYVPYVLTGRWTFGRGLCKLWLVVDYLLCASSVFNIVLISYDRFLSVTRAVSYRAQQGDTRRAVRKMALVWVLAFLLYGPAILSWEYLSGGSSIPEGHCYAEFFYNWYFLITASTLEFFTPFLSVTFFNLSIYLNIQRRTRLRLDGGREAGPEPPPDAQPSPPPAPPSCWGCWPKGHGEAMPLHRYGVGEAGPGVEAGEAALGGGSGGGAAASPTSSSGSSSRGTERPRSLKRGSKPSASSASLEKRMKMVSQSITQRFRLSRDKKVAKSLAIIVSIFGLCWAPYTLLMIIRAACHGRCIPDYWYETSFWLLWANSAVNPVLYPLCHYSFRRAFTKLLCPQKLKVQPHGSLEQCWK
- assay summary: Functional Histamine H3 receptor antagonistic activity in vitro assay on synaptosomes of rat cerebral cortex
- Assay type: subcellular, Brain
pKi: −log10 of the molar value.

- molecule: "c1nc(COCC2CCCCC2)c[nH]1"
  reported relation: "<"
  pKi: 6.00
- molecule: "CCCCCCOCCCc1c[nH]cn1.O=C(O)/C=C\\C(=O)O"
  reported relation: "="
  pKi: 7.90
- molecule: "COCCCc1c[nH]cn1.O=C(O)C(=O)O"
  reported relation: "="
  pKi: 6.50
- molecule: "C#CCOCCCc1c[nH]cn1.O=C(O)C(=O)O"
  reported relation: "="
  pKi: 6.70

* * *

- target: Histamine H3 receptor (Rattus norvegicus)
- assay summary: In vitro […] against rat histamine H3 receptor
pKi: −log10 of the molar value.
measurement type: pKi

- compound: "O=C(COCCCc1c[nH]cn1)c1ccccc1.O=C(O)/C=C\\C(=O)O"
  reported relation: "<"
  observed result: 6.30
- compound: "CC(=O)CCOCCCc1c[nH]cn1"
  reported relation: "="
  observed result: 6.84
- compound: "c1ccc(C(OCCCc2cnc[nH]2)(c2ccccc2)c2ccccc2)cc1"
  reported relation: "<"
  observed result: 6.30
- compound: "c1ccc(CC(COCCCc2c[nH]cn2)c2ccccc2)cc1 (centres undefined)"
  reported relation: "="
  observed result: 6.74
- compound: "CCCCOCCCc1c[nH]cn1.O=C(O)/C=C\\C(=O)O"
  reported relation: "="
  observed result: 7.25
- compound: "C=CCCCOCCCc1c[nH]cn1.O=C(O)C(=O)O"
  reported relation: "="
  observed result: 7.57
- compound: "O=C(CCCOCCCc1c[nH]cn1)c1ccc(F)cc1.O=C(O)C(=O)O"
  reported relation: "="
  observed result: 7.85
- compound: "CC(C)(C)OCCc1c[nH]cn1.O=C(O)C(=O)O"
  reported relation: "<"
  observed result: 6.30
- compound: "c1nc(COCCCC2CCCCC2)c[nH]1"
  reported relation: "≤"
  observed result: 6.30
- compound: "N#CCCOCCCc1c[nH]cn1.O=C(O)C(=O)O"
  reported relation: "="
  observed result: 6.17
- compound: "c1nc(COCC2CCCCC2)c[nH]1"
  reported relation: "<"
  observed result: 6.30
- compound: "O=C(COCCCc1c[nH]cn1)c1cccc([N+](=O)[O-])c1"
  reported relation: "<"
  observed result: 6.30
- compound: "O=C(O)/C=C\\C(=O)O.c1nc(COCCC2CCCCC2)c[nH]1"
  reported relation: "<"
  observed result: 6.30
- compound: "C#CCOCCCc1c[nH]cn1.O=C(O)C(=O)O"
  reported relation: "="
  observed result: 6.72
- compound: "c1nc(CCCOCC2CC2)c[nH]1"
  reported relation: "="
  observed result: 6.78
- compound: "c1nc(CCCOCCC2CCCCC2)c[nH]1"
  reported relation: "="
  observed result: 7.96
- compound: "C#CCCCOCCCc1c[nH]cn1"
  reported relation: "="
  observed result: 7.42
